assay: Inhibition of baker's yeast alpha-glucosidase type-1 using p-nitrophenyl-alpha-D-glucopyranoside as substrate preincubated for 30 mins followed by substrate addition measured after 20 mins by microplate reader analysis; parameters: species or system Saccharomyces cerevisiae; conditions: read-out: IC50
Outcome measure: pIC50
Answers are plain numbers, as −log10 of the molar value.

Recorded results for 3 molecules are shown here.
C[C@H]1O[C@H](O[C@H]2[C@H](O)[C@@H](O)[C@@H](O[C@H]3[C@H](O)[C@@H](O)C(O)O[C@@H]3CO)O[C@@H]2CO)[C@H](O)[C@@H](O)[C@@H]1N[C@H]1C=C(CO)[C@@H](O)[C@H](O)[C@H]1O (some centres undefined)	3.99
O=C(CCCCCCC[C@H](O)c1ccccc1)c1c(O)cc(O)cc1O	4.65
O=C(CCCCCCC[C@H](O)c1ccccc1)c1c(O)cc(O)c(C(CCc2ccccc2)c2ccc(O)cc2O)c1O (some centres undefined)	5.25

Lookup: Please report the recorded pIC50 for O=C1C[C@@H](c2ccccc2)Oc2c1c(O)cc(O)c2[C@@H]1O[C@H](CO)[C@@H](O)[C@H](O)[C@H]1O .
Found: 3.28

---

assay: Antioxidant activity assessed as DPPH radical scavenging activity incubated for 30 mins in dark condition by spectrophotometric analysis; format: physicochemical; settings: 0.5 h
Outcome measure: SC50

Recorded results for 2 compounds are shown here.
O=C1O[C@H]([C@@H](O)CO)C(O)=C1O [ASCORBIC ACID]	2.45 mM
O=C(CCCCCCC[C@H](O)c1ccccc1)c1c(O)cc(O)c(C(CCc2ccccc2)c2ccc(O)cc2O)c1O (stereo not given in full)	0.43 mM

Dear reader, for each entry below, please note its SC50.
1. O=C1C[C@@H](c2ccccc2)Oc2c1c(O)cc(O)c2[C@@H]1O[C@H](CO)[C@@H](O)[C@H](O)[C@H]1O
2. O=C(CCCCCCC[C@H](O)c1ccccc1)c1c(O)cc(O)cc1O

Found:
1: 6.76 mM; 2: 1.6 mM

---

target: Sucrase-isomaltase, intestinal (Rattus norvegicus); assay: Inhibition of rat intestinal Sucrase using sucrose as substrate assessed as glucose release after 40 mins by glucose oxidase method; conditions: read-out: IC50
Exercise: state measured IC50 for each of the compounds provided.

O=C(CCCCCCC[C@H](O)c1ccccc1)c1c(O)cc(O)cc1O	94.9 µM

We now examine a further compound.
Lookup: Please report the recorded IC50 for O=C(CCCCCCC[C@H](O)c1ccccc1)c1c(O)cc(O)c(C(CCc2ccccc2)c2ccc(O)cc2O)c1O (some centres not stated) .
Found: 47.4 µM

---

Exercise: state measured pKi for each of the compounds provided.
target: Sucrase-isomaltase, intestinal (Rattus norvegicus, UniProt P23739); assay: Non-competitive inhibition of rat intestinal Sucrase using sucrose as substrate assessed as glucose release after 40 mins by Lineweaver-Burk plot analysis
Sequence (P23739 1-1013 limits assumed): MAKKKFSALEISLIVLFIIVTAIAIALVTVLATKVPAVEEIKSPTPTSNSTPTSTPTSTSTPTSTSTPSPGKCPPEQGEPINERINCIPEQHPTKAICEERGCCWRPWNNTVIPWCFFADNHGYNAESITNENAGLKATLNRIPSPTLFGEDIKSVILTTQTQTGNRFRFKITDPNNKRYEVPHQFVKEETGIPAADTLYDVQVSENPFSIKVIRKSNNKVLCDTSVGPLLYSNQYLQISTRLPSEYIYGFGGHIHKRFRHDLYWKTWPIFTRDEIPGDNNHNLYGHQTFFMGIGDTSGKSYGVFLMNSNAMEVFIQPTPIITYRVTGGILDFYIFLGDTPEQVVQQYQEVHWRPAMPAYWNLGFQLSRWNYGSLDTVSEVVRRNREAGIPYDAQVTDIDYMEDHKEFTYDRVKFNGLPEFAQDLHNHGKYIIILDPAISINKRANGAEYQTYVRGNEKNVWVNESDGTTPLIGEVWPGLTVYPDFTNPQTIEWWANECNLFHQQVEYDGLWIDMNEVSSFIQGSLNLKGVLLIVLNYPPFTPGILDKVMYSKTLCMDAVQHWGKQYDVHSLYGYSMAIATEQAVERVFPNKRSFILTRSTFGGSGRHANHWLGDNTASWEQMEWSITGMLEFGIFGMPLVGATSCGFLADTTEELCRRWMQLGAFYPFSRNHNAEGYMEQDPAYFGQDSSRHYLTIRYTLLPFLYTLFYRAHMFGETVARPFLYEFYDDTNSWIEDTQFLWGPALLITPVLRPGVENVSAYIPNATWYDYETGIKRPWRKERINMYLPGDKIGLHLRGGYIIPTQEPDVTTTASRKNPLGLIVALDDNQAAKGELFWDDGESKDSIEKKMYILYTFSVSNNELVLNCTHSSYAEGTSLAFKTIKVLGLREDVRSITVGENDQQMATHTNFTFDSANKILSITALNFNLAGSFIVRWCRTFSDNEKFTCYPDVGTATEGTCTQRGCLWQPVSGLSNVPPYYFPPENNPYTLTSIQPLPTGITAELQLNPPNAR
Sequence (P23739 1014-1841 limits assumed): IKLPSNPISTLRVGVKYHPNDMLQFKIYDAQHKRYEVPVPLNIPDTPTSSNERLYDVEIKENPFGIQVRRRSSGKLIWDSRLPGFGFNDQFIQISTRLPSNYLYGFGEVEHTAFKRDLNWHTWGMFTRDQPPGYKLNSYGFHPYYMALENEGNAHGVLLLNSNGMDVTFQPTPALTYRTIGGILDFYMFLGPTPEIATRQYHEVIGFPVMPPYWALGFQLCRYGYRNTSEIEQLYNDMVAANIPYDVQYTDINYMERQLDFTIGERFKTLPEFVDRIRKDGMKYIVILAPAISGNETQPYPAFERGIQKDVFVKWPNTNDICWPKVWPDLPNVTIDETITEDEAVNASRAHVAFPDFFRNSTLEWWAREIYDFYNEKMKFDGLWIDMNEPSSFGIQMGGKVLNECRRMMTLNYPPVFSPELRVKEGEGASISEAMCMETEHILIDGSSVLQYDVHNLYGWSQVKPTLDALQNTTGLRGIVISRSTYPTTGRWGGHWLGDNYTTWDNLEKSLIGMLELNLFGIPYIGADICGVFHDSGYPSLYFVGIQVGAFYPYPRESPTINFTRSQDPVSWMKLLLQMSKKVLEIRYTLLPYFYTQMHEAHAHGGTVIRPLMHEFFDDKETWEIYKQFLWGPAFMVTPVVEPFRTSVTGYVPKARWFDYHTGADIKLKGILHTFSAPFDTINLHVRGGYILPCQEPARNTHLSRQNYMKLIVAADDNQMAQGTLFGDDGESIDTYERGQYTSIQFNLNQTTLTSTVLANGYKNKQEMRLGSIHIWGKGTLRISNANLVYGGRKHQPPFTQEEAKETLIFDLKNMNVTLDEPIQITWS
Give bare numbers, as −log10 of the molar value.

Dear reader, for each entry below, please note its pKi.
1. O=C(CCCCCCC[C@H](O)c1ccccc1)c1c(O)cc(O)cc1O
2. O=C(CCCCCCC[C@H](O)c1ccccc1)c1c(O)cc(O)c(C(CCc2ccccc2)c2ccc(O)cc2O)c1O (some centres not stated)

Found:
1. 3.27
2. 3.42
